- TARGET_OR_TEST_SYSTEM: T1, cSIRPαV2D1 with histidine tag (cynomolgus monkey (Macaca fascicularis), UniProt Q5TFQ8 30-146 (human entry))
- T1 construct: also called cynomolgus monkey SIRPαV2D1; not shown: histidine tag
- T1 chain: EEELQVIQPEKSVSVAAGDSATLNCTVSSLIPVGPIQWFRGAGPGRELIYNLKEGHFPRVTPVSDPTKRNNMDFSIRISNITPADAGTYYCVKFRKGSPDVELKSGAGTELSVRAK
- METHOD_DESCRIPTION: SPR (Biacore 3000), IgG captured on anti-human IgG, His-tagged D1 analyte
pKd: −log10 of the molar value.
pKd values by entry

| BINDER | pKd |
| --- | --- |
| Ab2_G4 (antibody, human IgG4 S228P, kappa, V domains shown, human IgG4 format) VH: EVQLVESGGGLVKPGGSLRLSCAASGFTFSSYVMSWVRQTPGKGLEWVATISSGGTYTYYPDSVKGRFTLSRDNAKNSLYLQMNSLRAEDTAVYYCASSVDGSAFDYWGQGTTVTVSS VL: DIVITQSPASLAVSLGERATISCRASESVDSYGMSFMHWYQQKPGQPPKLLIYRASNLESGVPDRFSGSGSRTDFTLTINPLQAEDVATYYCHQSSENLPWTFGGGTKVEIKR | ~6.15 |
| Ab1_G4 (antibody, human IgG4 S228P, kappa, V domains shown, human IgG4 format, kappa light chain, made in EXPICHO cells) VH: EVQLVESGGGLVKPGGSLRLSCAASGFTFSSYVMSWVRQTPGKGLEWVATISSGGTYTYYPSSVKGRFTLSRDNAKNSLYLQMNSLRAEDTAVYYCASSLTGSSFDYWGQGTTVTVSS VL: DIVLTQSPASLAVSLGERATISCRASESVDLYGTSFMHWYQQKPGQPPKLLIYRASNLESGVPDRFSGSGSRTDFTLTINPLQAEDVATYYCHQSSDELPWTFGGGTKVEIKR | ~6.40 |
| Ab11_G2 (antibody, human IgG2, V domains shown, same antibody as Ab11_G4 except human IgG2 CH1, hinge, CH2 and CH3) VH: EVQLVESGGGLVKPGGSLRLSCAASGFTFSSYVMSWVRQTPGKGLEWVATISSGGTYTYYPDSVKGRFTLSRDNAKNSLYLQMNSLRAEDTAVYYCASQLTGSEFDYWGQGTTVTVSS VL: DIVITQSPASLAVSLGERATISCRASESVDSYGNSFMHWYQQKPGQPPKLLIYRASNLESGVPDRFSGSGSRTDFTLTINPLQAEDVATYYCHQSGDLPWTFGGGTKVEIKR | ~6.32 |
| Ab11_G4 (antibody, human IgG4 S228P, kappa, V domains shown, human IgG4 format) VH: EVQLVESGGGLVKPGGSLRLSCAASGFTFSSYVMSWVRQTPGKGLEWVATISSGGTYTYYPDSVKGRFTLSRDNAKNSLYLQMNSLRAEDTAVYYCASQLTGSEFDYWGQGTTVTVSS VL: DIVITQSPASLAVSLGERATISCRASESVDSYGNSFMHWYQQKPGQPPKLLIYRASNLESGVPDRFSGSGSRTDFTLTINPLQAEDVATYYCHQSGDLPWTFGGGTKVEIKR | ~6.28 |
| Ab8_G4 (antibody, human IgG4 S228P, kappa, V domains shown, human IgG4 format) VH: EVQLVESGGGLVKPGGSLRLSCAASGFTFSSYVMSWVRQTPGKGLEWVATISSGGTYTYYPESVKGRFTLSRDNAKNSLYLQMNSLRAEDTAVYYCASQLTGSEFDYWGQGTTVTVSS VL: DIVMTQSPASLAVSLGERATISCRASESVDSYGNSFMHWYQQKPGQPPKLLIYRASNLESGVPDRFSGSGSRTDFTLTINPLQAEDVATYYCHQSADLPWTFGGGTKVEIKR | ~5.98 |
| Ab9_G4 (antibody, human IgG4 S228P, kappa, V domains shown, human IgG4 format) VH: EVQLVESGGGLVKPGGSLRLSCAASGFTFSSYVMSWVRQTPGKGLEWVATISSGGTYTYYPNSVKGRFTLSRDNAKNSLYLQMNSLRAEDTAVYYCVSSMTGSSFDYWGQGTTVTVSS VL: DIVITQSPASLAVSLGERATISCRASESVDSYGNSFMHWYQQKPGQPPKLLIYRASNLESGVPDRFSGSGSRTDFTLTINPLQAEDVATYYCHQSSEQLPWTFGGGTKVEIKR | ~6.36 |
